Literature compilation of Ki measurements on Sodium-dependent noradrenaline transporter (Homo sapiens, UniProt P23975).

Recorded Ki, per entry:
CC[C@@H](Oc1c(F)cccc1Cl)[C@H]1CCNC1 ... ≤ 10 nM
CCOc1ccc(-n2nc3c(NCC(O)Cc4ccccc4)nnc(C)c3c2C)c(F)c1 (centres unmarked) ... > 1000 nM
CC(C)C[C@H](Oc1c(Cl)cccc1Cl)[C@@H]1CCNC1 ... ≤ 10 nM
CNC(COc1cccc(-n2nc3c(N(C)C)nnc(C)c3c2C)c1)c1ccccc1 (centres unmarked) ... < 100 nM
Fc1cccc(O[C@@H](C2CC2)[C@H]2CCNC2)c1Cl ... ≤ 10 nM
CC(C)CC(Oc1c(Cl)c(F)cc(F)c1Cl)C1CCNC1 (centres unmarked) ... ≤ 10 nM
C=CC[C@H](Oc1cccc(Cl)c1C)[C@H]1CCNC1 ... ≤ 10 nM
CCC[C@@H](Oc1cccc(Cl)c1C)[C@H]1CCNC1 ... ≤ 10 nM

Prompt: I'd like to know its Ki. The compound in question is CNCCC(Oc1cccc(-n2nc3c(N4CC(OC)C4)nnc(C)c3c2C)c1)c1ccccc1F (centres unmarked)
Completion: 500 to 1000 nM

Prompt: Another compound to look at: Clc1ccc(O[C@H](C2CC2)[C@H]2CCNC2)cc1Cl
Completion: ≤ 10 nM

Prompt: Param item: Cc1cc(O[C@H](C2CC2)[C@H]2CCNC2)ccc1Cl
Completion: ≤ 100 nM

----------
Collected literature values of Ki measured for Sodium-dependent noradrenaline transporter (Homo sapiens).

CCOc1ccc(-n2nc3c(N(C)Cc4cscn4)nnc(C)c3c2C)c(F)c1 ... > 1000 nM

Prompt: // Ki lookup, key: CNCCC(Oc1cccc(-n2nc3c(N(C)C)nnc(C)c3c2C)c1)c1cccc(C#N)c1 (stereo not drawn)
Completion: < 100 nM

Prompt: Cc1cc(Cl)ccc1O[C@@H](CC(C)C)[C@@H]1CCNC1 ?
Completion: ≤ 100 nM

Prompt: What would you report for Cc1cccc(O[C@@H](C2CC2)[C@H]2CCNC2)c1C ?
Completion: ≤ 10 nM

----------
Literature compilation of pKi measurements on Sodium-dependent noradrenaline transporter (Homo sapiens).
pKi: −log10 of the molar value.

CC(C)[C@H](Oc1cccc2ccccc12)[C@H]1CCNC1 ... ≥ 8.00
CNCCC(Oc1cccc(-c2ccnc(C)n2)c1)c1ccccc1 (centres unmarked) ... 6.30 to 7.00

Prompt: Look at this compound and give its reported pKi. CC[C@H](Oc1ccc(Cl)cc1F)[C@H]1CCNC1
Completion: ≥ 8.00

Prompt: Then CCOc1ccc(-n2nc3c(N4CC[C@H](NCc5ccc(F)c(F)c5)C4)nnc(C)c3c2C)c(F)c1 ?
Completion: > 7.00

Prompt: Also, CC[C@@H](Oc1ccc(Cl)cc1C)[C@H]1CCNC1 please.
Completion: ≥ 7.00

Prompt: Would you kindly repeat that for Clc1ncccc1-c1ccccc1CO[C@H]1CCNC1 ?
Completion: ≤ 5.00

Prompt: Also CC(C)C[C@H](Oc1cccc(F)c1Cl)[C@H]1CCNC1 , if possible.
Completion: ≥ 8.00

Prompt: Cool, now CCC[C@@H](Oc1ccc(Cl)cc1C(F)(F)F)[C@H]1CCNC1
Completion: ≥ 7.00

----------
Literature survey of pKi (system: UniProt P23975).
pKi: −log10 of the molar value.

# count of solved cases: 4
Cc1nnc(N(C)C)c2nn(-c3cccc(OC(CCNCCF)c4ccccc4)c3)c(C)c12 (centres unmarked) ... 6.30 to 7.00
CNCCC(Oc1cccc(-c2ccncc2)c1)c1cccs1 (centres unmarked) ... 6.30 to 7.00
CNCCC(Oc1cccc(-c2ccc(C)nn2)c1)c1ccccc1 (centres unmarked) ... 6.00 to 6.30
CCOc1ccc(-n2nc3c(N(C)Cc4ccccn4)nnc(C)c3c2C)cc1 ... 6.00 to 6.30

Prompt: # input compound: CNCCC(Oc1cccc(-n2c(C)c3c(C)nnc(C)c3c2C)c1)c1cccc(F)c1 (centres unmarked) ; wanted: its pKi
Completion: 6.30 to 7.00
